meta.source: the RNAGym collection of RNA variant scans (doi:10.1073/pnas.2313332121)

B1: TPR 5TU (parent)
chain: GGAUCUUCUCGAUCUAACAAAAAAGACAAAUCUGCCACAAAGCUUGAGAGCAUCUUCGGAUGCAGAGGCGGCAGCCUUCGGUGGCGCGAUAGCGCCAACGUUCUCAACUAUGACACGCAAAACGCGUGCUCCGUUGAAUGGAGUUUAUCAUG

Variants of: B1
Assay: polymerase ribozyme fitness, log enrichment relative to wild type (log ratio); higher = more active; in vitro selection for triplet polymerase activity
This sample holds only a part of the variants without activity.
Reported polymerase ribozyme fitness (log ratio) is given for each of the following variants.
// response body must contain only the number

Below, 5 variants whose answers are already recorded.
• A28G A41C G42U A66G C96G G133U U144G = -4.13
• G25C A26C = -2.94
• U56G G92U = -2.1
• A73U U82A C95U = -1.04
• A41G C63U = 0.774

Give the reported polymerase ribozyme fitness (log ratio) for this variant. A17G C51U A106G A120C A122U
-1.36

Give the reported polymerase ribozyme fitness (log ratio) for this variant. C35U G84U A89U A97G G143A
-2.66

Give the reported polymerase ribozyme fitness (log ratio) for this variant. A24G U31C
-3.52

Give the reported polymerase ribozyme fitness (log ratio) for this variant. G83A U90C
-3.51

Give the reported polymerase ribozyme fitness (log ratio) for this variant. G92A A106G
-2.36

Give the reported polymerase ribozyme fitness (log ratio) for this variant. G34U G94C
-3.96

Give the reported polymerase ribozyme fitness (log ratio) for this variant. U61A G117A
-0.98

Give the reported polymerase ribozyme fitness (log ratio) for this variant. G25C G48A C87U A142G
-4.11

Give the reported polymerase ribozyme fitness (log ratio) for this variant. G48A C57A
0.284

Give the reported polymerase ribozyme fitness (log ratio) for this variant. A60U C87U
-1.36

Give the reported polymerase ribozyme fitness (log ratio) for this variant. G59C G126C
0.783

Give the reported polymerase ribozyme fitness (log ratio) for this variant. G84A G133C
-1.78

Give the reported polymerase ribozyme fitness (log ratio) for this variant. G34A C93A
-3.6

Give the reported polymerase ribozyme fitness (log ratio) for this variant. U55A A91G
-2.86

Give the reported polymerase ribozyme fitness (log ratio) for this variant. G58A C96U
0.538
